- system under test: EGR1 DB_WT (Zif268 DNA-binding domain) (human, UniProt P18146 331-430)
- assay text: ITC
pKd: −log10 of the molar value.

binder: ZRE duplex (15-mer) (dsDNA) DNA 1: ATAGCGTGGGCGTTT DNA 2: AAACGCCCACGCTAT
pKd: 6.12
